Experiment: gradient 5% acetonitrile 3 min, to 50% in 2 min, to 85% in 15 min, held 3 min, 100 µL/min
Conditions: column: Zorbax Extend-C18 2.1 x 50 mm; eluents: water / acetonitrile, 0.1% formic acid
Measured RP-LC retention time values are reported for all entries that follow.
QUANTITY: RP-LC retention time

CCCCN(CC)CCNC(=O)c1cn2c3c(ccc(Cl)c3c1=O)OCC2 : 758 s
CCC(=O)Nc1c(C)noc1/C=C/c1ccc(S(=O)(=O)N2CCN(c3ccccn3)CC2)s1 : 677 s
CC(C)CC(=O)N1CCN(c2nc3ccccc3n(CC(C)C)c2=O)CC1 : 1080 s
O=C(c1ccc2ccnc(N3CCN(c4ccc(F)cc4)CC3)c2c1)N1CCC2(CC1)OCCO2 : 724 s
CC1=C(c2ccc(F)cc2)S(=O)(=O)N=C1N1CCC(NC(=O)c2ccoc2)CC1 : 747 s
CCN1C(=O)c2ccccc2Oc2ccc(C(=O)NC3CCCC3)cc21 : 891 s
CCOc1ccc(C2Cn3nnc(-c4nc(-c5cccc(C)c5)no4)c3CO2)cc1 (centres undefined) : 1270 s
O=C(NCc1ccccc1)c1ccc(-c2cncnc2)nc1 : 675 s
CCS(=O)(=O)N1CC(CC#N)(n2cc(-c3ncnc4[nH]ccc34)cn2)C1 : 637 s

---

Assay: gradient 5% acetonitrile 3 min, to 50% in 2 min, to 85% in 15 min, held 3 min, 100 µL/min
Conditions: column: Zorbax Extend-C18 2.1 x 50 mm; eluents: water / acetonitrile, 0.1% formic acid
RP-LC retention time values, listed per item
QUANTITY: RP-LC retention time (s)

CNC(=O)[C@@H]1CN(C(=O)C2CC=CCC2)C[C@H]1c1nc(C)no1 (stereo not given in full) : 642
O=C(COc1ccc(F)cc1)Nc1ccc2c(c1)N(C(=O)c1ccco1)CCC2 : 712
N=C(N)n1c(N)nc2ccccc2c1=O : 613
COc1ccc(-c2ccc(=O)n(CCCNC(=O)c3ccc(C(F)(F)F)cc3)n2)cc1 : 824
O=c1nc(-c2ccccc2)c2ccccc2[nH]1 : 618
Cn1cc(C(=O)Nc2ccc(N3CCOCC3)cc2)c2cccnc21 : 658
COC(=O)c1cc2c(=O)n(CCc3cccs3)ccc2nc1C : 838
Cc1cc(C)n(CCNS(C)(=O)=O)n1 : 534
Cn1nc(C(=O)NCc2ccc3c(c2)OCO3)c2c1CCN(C(=O)COc1ccc(Cl)cc1)C2 : 856
O=C(NCc1cccs1)C1CCCN(C(=O)c2cc(-c3ccccn3)n[nH]2)C1 (stereo not given) : 641

---

In this section, each of the compounds is paired with its reported RP-LC retention time.
Assay: gradient 5% acetonitrile 3 min, to 50% in 2 min, to 85% in 15 min, held 3 min, 100 µL/min
Details: column: Zorbax Extend-C18 2.1 x 50 mm; eluents: water / acetonitrile, 0.1% formic acid
QUANTITY: RP-LC retention time

CCS(=O)(=O)N1CC(=O)N(c2ccccc2C)C(C)(C(=O)NCc2ccccc2)C1 (centres undefined) : 802 s
CC(=O)c1cccc(NC(=O)Cn2c(-c3ccc(F)cc3)nc(C)cc2=O)c1 : 963 s
COc1ccc(N2CCN(C(=O)c3cc(NC(C)=O)cc4nc(C)ccc34)CC2)cc1 : 603 s
CCOC(=O)C1=C(C)NC2=C(C(=O)c3ccccc32)C1c1cccc(OC)c1OC (centres undefined) : 902 s
Fc1ccccc1CSc1ccc2nnc(-c3cccnc3)n2n1 : 680 s
Cc1ccc(NC(=O)Nc2ccc(NC(=O)N3CCCC(C(=O)NCC4CC4)C3)cc2)cc1 (centres undefined) : 779 s
NC(N)=NCCC[C@H](NC(=O)[C@@H]1CCCN1C(=O)[C@H](N)Cc1ccccc1)C(=O)CCl : 1100 s
OCCN1CCN(CC(O)COCc2ccc(Cl)cc2)CC1 (centres undefined) : 530 s
CC(C)c1ccc(NC(=O)c2cn3c(n2)CCCC3)cc1 : 684 s
COCCn1nc(N2CCCC(NS(=O)(=O)c3c(C)nn(C)c3C)C2)ccc1=O (centres undefined) : 622 s
CC(C)c1noc(C2CCCN(S(=O)(=O)c3cn(C)cn3)CCC(=O)NCC2)n1 (centres undefined) : 640 s
Cc1nn(C)c(C)c1CNC(=O)c1ccc2nc(Cc3ccccc3)oc2c1 : 714 s
Cc1ccc2nc(C(=O)N3CCN(c4ccc(Cl)cc4)CC3)cn2c1 : 738 s
O=C(NCCCN1CCc2ccccc2C1)c1c(OCC2CC2)cc(=O)n2c1CCCCC2 : 566 s
Cc1ccccc1-c1noc(C2CCCN2S(=O)(=O)c2cccc(Cl)c2C)n1 (centres undefined) : 1280 s
CCOC(=O)Cc1ccc(NC(=O)N2CCC3(CC2)Nc2cc(F)ccc2-n2cccc23)cc1 : 1000 s
CC(NC(=O)c1ccco1)c1nc(-c2ccc(Oc3ccccc3)cc2)no1 (centres undefined) : 1030 s
Cc1cc(NC(=O)c2cnc(-c3ccccc3)nc2-c2ccncc2)ccc1Br : 994 s
Cc1oc(C2CCN(S(=O)(=O)c3ccc(F)cc3)CC2)nc1C(=O)N1CCCC1 : 890 s
